Where do these numbers come from? They come from patent US20250064909A1.

Molecular target: T1, recombinant human TIGIT (Sino Biological) (human, UniProt Q495A1 22-138)
T1 construct: Bought protein; NP_776160.2; also called human TIGIT antigen; hTIGIT
T1 sequence: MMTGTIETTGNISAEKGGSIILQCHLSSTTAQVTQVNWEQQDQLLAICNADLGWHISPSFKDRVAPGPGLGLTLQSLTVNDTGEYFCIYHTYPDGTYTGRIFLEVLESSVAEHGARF
Test: SPR (Biacore T200), single cycle kinetics, IgG from supernatant captured on anti-human chip, TIGIT as analyte, 1:1 fit;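 note: measured at 25 °C in HBS-P+ with 1% BSA, four ascending TIGIT concentrations, 210 s association per step, one final 900 s dissociation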
Threshold 0.9 nM: Kd strictly smaller gives true (1), otherwise false (0).

Q) In the record for 7A6 VH0/Vκ0 chimeric antibody (human IgG1, kappa) (antibody, V domains shown, Mouse 7A6 variable regions on human IgG1/kappa constant regions; also called VH0/Vk0; 7A6 VH0Vk0) VH: DVQLQESGPGLVKPSQSLSLTCTVTGYSITSDYAWNWIRQFPGNKLEWMGYISYSGSARYNPSLKSRISITRDTSMNQFFLQLNSVTAEDTATYYCARKGYPAYFAYWGQGTLVTVSS VL: DIVMTQSHKFMSTSVGDRVSISCKASQDVSTAVAWYQQKPGQSPELLIYSASYRYTGVPDRFTGSGSGTDFTFTISSVQAEDLAVYYCQHHYSTPYTFGGGTKLEMKR , is Kd less than 0.9 nM?
A) true (1)

Q) Criterion: Kd strictly below 0.9 nM. Is it met by 7A6 VH3/Vκ4 humanized antibody (human IgG1, kappa) (antibody, V domains shown, Tested as IgG in supernatant of transiently transfected HEK293 EBNA cells) VH: QVQLQESGPGLVKPSQTLSLTCTVTGYSITSDYAWNWIRQPPGKGLEWMGYISYSGSARYNPSLKSRVTISRDTSKNQFSLKLSSVTAEDTATYYCARKGYPAYFAYWGQGTLVTVSS VL: DIQMTQSPSSLSASVGDRVTITCRASQDVSTAVAWYQQKPGQAPRLLIYSASYRYTGVPDRFSGSGSGTDFTLTISSLQAEDVAVYYCQHHYSTPYTFGQGTKLEIKR ?
A) false (0)

Q) API: query returns whether the binder falls strictly under 0.9 nM in Kd. Query: 7A6 VH1/Vκ5 humanized antibody (human IgG1, kappa) (antibody, V domains shown, Tested as IgG in supernatant of transiently transfected HEK293 EBNA cells) VH: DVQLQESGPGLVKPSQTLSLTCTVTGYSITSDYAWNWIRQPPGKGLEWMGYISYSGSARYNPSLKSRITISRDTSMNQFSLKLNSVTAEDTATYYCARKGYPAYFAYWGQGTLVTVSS VL: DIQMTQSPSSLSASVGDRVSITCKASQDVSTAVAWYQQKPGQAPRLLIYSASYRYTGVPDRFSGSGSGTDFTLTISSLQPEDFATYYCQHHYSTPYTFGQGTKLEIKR
A) true (1)

Q) is_below(Kd, 0.9 nM) for 7A6 VH2/Vκ4 humanized antibody (human IgG1, kappa) (antibody, V domains shown, Tested as IgG in supernatant of transiently transfected HEK293 EBNA cells) VH: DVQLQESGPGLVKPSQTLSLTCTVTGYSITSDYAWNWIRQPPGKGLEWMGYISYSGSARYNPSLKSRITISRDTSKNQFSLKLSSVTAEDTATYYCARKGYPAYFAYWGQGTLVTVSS VL: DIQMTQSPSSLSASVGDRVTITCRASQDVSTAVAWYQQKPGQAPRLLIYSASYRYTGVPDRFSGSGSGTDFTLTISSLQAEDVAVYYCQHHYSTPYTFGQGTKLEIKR ?
A) false (0)
